Some molecules, each annotated with its measured IC50.
# target: Full length human PDE2A protease (Homo sapiens)
# Construct: Full length human PDE2A protease; GST (N); host or cells: insect Sf9 cells (baculovirus)
# Sequence (O00408 whole entry): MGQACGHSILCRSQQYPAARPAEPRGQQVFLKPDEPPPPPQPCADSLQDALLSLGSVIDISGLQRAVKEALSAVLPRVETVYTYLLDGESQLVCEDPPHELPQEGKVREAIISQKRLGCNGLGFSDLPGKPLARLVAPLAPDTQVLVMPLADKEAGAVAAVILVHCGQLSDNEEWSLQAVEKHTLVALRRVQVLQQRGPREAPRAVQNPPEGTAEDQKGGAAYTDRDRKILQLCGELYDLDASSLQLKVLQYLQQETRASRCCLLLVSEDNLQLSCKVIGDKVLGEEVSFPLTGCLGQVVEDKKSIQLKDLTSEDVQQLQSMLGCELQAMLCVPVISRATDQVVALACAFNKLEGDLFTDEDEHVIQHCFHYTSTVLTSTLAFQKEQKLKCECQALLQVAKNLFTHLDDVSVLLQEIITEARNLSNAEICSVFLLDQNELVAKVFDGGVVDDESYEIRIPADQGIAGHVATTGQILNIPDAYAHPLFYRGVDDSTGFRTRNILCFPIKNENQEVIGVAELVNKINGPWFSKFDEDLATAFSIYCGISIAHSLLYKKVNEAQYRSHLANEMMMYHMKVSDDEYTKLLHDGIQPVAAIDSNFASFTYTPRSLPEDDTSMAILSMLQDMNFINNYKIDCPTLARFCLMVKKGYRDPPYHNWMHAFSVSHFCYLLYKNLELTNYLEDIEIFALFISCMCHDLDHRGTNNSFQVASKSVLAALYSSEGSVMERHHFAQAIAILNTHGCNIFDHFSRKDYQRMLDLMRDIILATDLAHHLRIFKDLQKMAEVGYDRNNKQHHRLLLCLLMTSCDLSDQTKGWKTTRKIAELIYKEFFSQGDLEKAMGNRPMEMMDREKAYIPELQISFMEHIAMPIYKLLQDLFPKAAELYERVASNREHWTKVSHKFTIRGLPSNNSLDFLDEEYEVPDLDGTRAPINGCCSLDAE
# test.details: In vitro evaluation of PDE2 phosphodiesterase inhibitory activity (Transcreener AMP2/GMP2 fluorescence polarization)
# Assay type: biochemical
# test.conditions: recombinant full length human PDE2A, substrate 1 μM cGMP, 1 hour at room temperature; read-out: PDE2 phosphodiesterase inhibitory activity
# Procedure: In Vitro Evaluation of PDE2 Phosphodiesterase Inhibitory Activity Experimental objectives: To detect the concentration of AMP/GMP produced in the reaction system by measuring the fluorescence intensity of the fluorescent dye AlexaFluor 633 substituted on AMP/GMP antibody and to calculate the PDE2 phosphodiesterase inhibitory IC50 value of the test compound. […] IC50 values and curves were calculated using the Prism software package (GraphPad Software, San Diego Calif., USA)

IC50 in this record for `CC(C)c1oncc1Cn1c(=O)c2c(ncn2C)n(C)c1=O` : 10 to 50 µM

IC50 in this record for Cn1nnc(CCCCCn2c(=O)c3c(ncn3C)n(C)c2=O)n1 (single isomer, unassigned) [Example 40 Isomer 2] : 10 to 50 µM

IC50 in this record for `Cc1noc(C)c1Cn1c(=O)c2c(ncn2CC2CC2)n(C)c1=O` : 1 to 10 µM
